# credit: the supplement of paper PMC10567573

B1: GLTSCR2 (parent)
chain: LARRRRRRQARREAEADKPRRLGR

variants of: B1; experiment: protein stability index of a GFP-peptide fusion (GPS, HEK-293T) (PSI 1-6); higher = more stable; settings: c terminus: a fixed tail appended;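 note: lentivirally expressed fusions sorted by FACS into six bins by GFP to DsRed ratio, PSI derived from sequencing read proportions per bin multiplied by bin number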
endpoint: protein stability index
Form field (numeric): enter value without unit.

> print(dat)
                biosequence                 endpoint  test.value
1  LARRRRRRQARREAEADKPRFLGR  protein stability index        4.58
2  LAGRRRRRQARREAEADKPRRLGR  protein stability index        5.02
3  LARRRRRRQARREAEADKPYRLGR  protein stability index        4.61
4  LARLRRRRQARREAEADKPRRLGR  protein stability index        4.59
5  LARRRRRRQARREAEADKPRILGR  protein stability index        3.94

Q: Check the records and state protein stability index for `LARRRRRRQARREAEADKPRRLDR`
Ans: 4.9

Q: Check the records and state protein stability index for `LARRRRRRQARNEAEADKPRRLGR`
Ans: 4.11

Q: Check the records and state protein stability index for `LAFRRRRRQARREAEADKPRRLGR`
Ans: 4.34

Q: Check the records and state protein stability index for `SARRRRRRQARREAEADKPRRLGR`
Ans: 5.66
